solubility kinetic listing for selected compounds.
- applied.conditions: buffer; pH 7.4; 200.0 µM
quantity.name: solubility kinetic (µg/mL)

1. O=C(COc1cccnc1[N+](=O)[O-])Nc1cc(Cl)ccc1Cl: 2.9
2. Cc1cc(C)c2nc(N(CCN(C)C)C(=O)/C=C/c3cccs3)sc2c1.Cl: 0.9
3. CC(=O)c1ccc(NC(=O)c2ccc3nc(C)sc3c2)cc1: 1.9
4. Cc1ccc2c(COC(=O)CNS(=O)(=O)c3ccccc3)cc(=O)oc2c1: 21.6
5. COc1ccc(C=O)cc1Oc1nc(Cl)ncc1F: 32
6. COc1ccccc1NC(=O)COC(=O)C12CC3CC(CC(Br)(C3)C1)C2: 5.5
7. C1CCC2S[C@H]3CCCCC3NC2C1 (stereo not given in full): 25.3
8. CN1CCN(CC(O)COc2ccc(C(=O)O)cc2)CC1 (stereo not given): 35.5
9. Cc1ccc(-c2cc(C(=O)N3CCCCCC3)no2)cc1: 1.3
10. CCCCCNCc1ccc(Cl)cc1: 12.4
11. Cc1cc(C)cc(OCC(=O)Nc2ccc(CN3CCCCC3)cc2)c1: 49.9
12. O=C(COC(=O)COc1ccccc1F)Nc1ccc(Cl)cn1: 7.6
13. CCCCNC(=O)CSc1nc(CCC)nc2ccccc12: 4

* * *

- applied.conditions: buffer; pH 7.4; 200.0 µM
Label true when solubility kinetic >= 30 µg/mL; otherwise false.

1. O=C(NCCc1ccccc1)c1ccc2c(c1)OCO2: true
2. CN1CCN(S(=O)(=O)c2ccc(Cl)s2)CC1: true
3. COC(=O)c1sccc1NC(=O)Nc1ccccc1Cl: false
4. COc1cc(OC)cc(C(=O)Nc2ccc(N(C)C)c3ccccc23)c1: false
5. O=C(COC(=O)COc1cccc(Br)c1)NCc1ccc2c(c1)OCO2: true
6. Cc1nc(C)c(-c2csc(Nc3ccc(S(N)(=O)=O)cc3)n2)s1: false
7. COc1ccc(S(=O)(=O)n2cnc3ccccc32)cc1.Cl: true
8. O=CN1CCN(C(=O)c2cccc3c2-c2ccccc2C3=O)CC1: true
9. CC1(C)CC(=O)C=C(Nc2ccc(C(=O)O)c(O)c2)C1: true
10. COc1ccc(OC)c(NC(=O)COC(=O)COc2ccc(Nc3ccccc3)cc2)c1: false
11. COc1cccc(C(=O)c2cc3cc(Cl)ccc3[nH]2)c1: false

* * *

- applied.conditions: buffer; pH 7.4; 200.0 µM
Label condition met when solubility kinetic >= 0.03 mg/mL; otherwise condition not met.

1) COCCNC(=O)CSc1ccccc1C(=O)O: condition met
2) C=CCn1cc(C=C2C(=O)NC(=O)NC2=O)c2ccccc21: condition not met
3) COc1ccccc1-c1nc2ccccc2c(=O)n1O: condition met
4) CSCCC1NC(=S)N(Cc2ccccc2)C1=O (stereo not drawn): condition met
5) Cc1ccc(N=C2C(=O)Nc3ccccc32)c(C)c1: condition not met
6) OCCCN=C1CCCc2c1[nH]c1ccc(Cl)cc21: condition not met
7) COc1nc(C)ccc1-c1noc(-c2cccnc2)n1: condition not met
8) Cc1cccc(Nc2nc(N3CCOCC3)nc(N3CCOCC3)n2)c1: condition met
9) COc1cccc(N2CCN(c3ccc(S(=O)(=O)N4CCN(C)CC4)cc3[N+](=O)[O-])CC2)c1: condition not met
10) CC(=O)N1CCN(C(=O)c2ccc3c(c2)OCCO3)CC1: condition met
11) COc1cccc(-c2nc(-c3ccccc3)c(-c3ccccc3)[nH]2)c1OCC(=O)O: condition met
12) O=c1[nH]c(SCc2c(Cl)cccc2Cl)nc2ccccc12: condition not met
13) Cc1ccc(CCNC(=O)CNC(=O)c2cccs2)cc1: condition met
14) Cc1csc(NC(=O)c2ccc(OCC3CCCO3)cc2)n1 (stereo not drawn): condition not met
15) Cn1c(C2CCCCC2)nc2c1c(=O)[nH]c(=O)n2Cc1ccccc1: condition not met
16) Cc1nc(C(=O)NCC(=O)c2ccccc2)c(C(F)(F)F)o1: condition met
17) CC1CC(C)CN(C(=O)COC(=O)c2ccc(N3CCCC3=O)cc2)C1 (stereo not drawn): condition met
18) O=C(NC(=S)N1CCCC1)c1cccc([N+](=O)[O-])c1: condition met
19) Cc1ccc2c(CN3CCN(Cc4ccccc4)CC3)cc(=O)oc2c1: condition met
20) Cc1cccc(OCCSc2nc3ncnc(N)c3[nH]2)c1: condition not met
21) O=C1CCCN1CC(O)CS(=O)(=O)Cc1ccccc1 (stereo not drawn): condition met
22) COC(=O)c1sccc1NC(=O)Nc1ccc(F)cc1F: condition not met
23) CCOc1ccc(-n2c(-c3cccs3)nc3ccccc3c2=O)cc1: condition not met
24) Cc1noc(C)c1C(=O)N1CCC(CO)(Cc2ccccc2)CC1: condition met
25) COc1ccccc1NC(=O)C(C)OC(=O)Cc1ccsc1 (stereo not drawn): condition met
26) CC1CCCCN1CC(O)c1c[nH]c2ccccc12 (stereo not drawn): condition met
27) COc1ccccc1-c1nnc(SCC(=O)NC2CCCCC2)n1N: condition met
28) COc1ccc(OCCn2ccnc2)cc1: condition not met
29) O=C(NC1CCCc2ccccc21)c1cc(Cl)ccn1 (stereo not drawn): condition not met
30) CC(=O)Nc1ccc(S(=O)(=O)NC(C)c2ccncc2)cc1 (stereo not drawn): condition met
31) COc1ccc(N2CCN(C(=O)Cc3ccc(Cl)cc3)CC2)cc1: condition met
32) CC1CCc2sc(C(=O)NCCCn3ccnc3)cc2C1 (stereo not drawn): condition met
33) O=C(Nc1cccc(NC(=O)c2cccnc2)c1)c1ccccc1: condition not met
34) O=C(Nc1ccccc1)Nc1cccc2nsnc12: condition not met
35) O=C(Nc1ccc(C(=O)OC2CCCCC2)cc1)c1ccncc1: condition not met
36) CCC(C)NC(=O)c1ccc2c(Cl)c3c(nc2c1)CCC3 (stereo not drawn): condition not met
37) COC(=O)C1SCCN1S(=O)(=O)c1ccc(Cl)cc1 (stereo not drawn): condition met
38) Cc1cc(C)c(C)c(S(=O)(=O)NCc2ccc(C(=O)N3CCN(C)CC3)cc2)c1C: condition met
39) COc1ccc(CNC(=O)COC(=O)c2ccc(F)c(S(=O)(=O)N3CCOCC3)c2)cc1: condition met
40) Cc1cccc(NC(=O)/C(C#N)=C/c2ccccc2O)n1: condition not met
41) COc1cccc(Nc2nc(-c3ccccc3)nc3ccccc23)c1: condition not met
42) Cc1ccccc1S(=O)(=O)N1CCN(C)CC1: condition met
43) CCOC(=O)Cc1csc(NC(=O)CN2CCN(c3ccccc3)CC2)n1: condition met
44) CCC(Sc1nc(C)cc(C)n1)C(=O)Nc1nccs1 (stereo not drawn): condition met
45) O=C(NCc1ccc2c(c1)OCO2)C(=O)Nc1ccccc1: condition not met
46) Cc1ccc(NC(=O)c2oc3ccccc3c2COC(C)C)cc1S(=O)(=O)N1CCOCC1: condition not met
47) CCN(CC(=O)NC1CCS(=O)(=O)C1)S(=O)(=O)c1ccc(Br)cc1 (stereo not drawn): condition met

* * *

- applied.conditions: buffer; pH 7.4; 200.0 µM
quantity.name: solubility kinetic

1) Cc1cc(NC(=O)CSc2nccn2-c2cccc(F)c2)no1: > 49.9 µg/mL
2) CCOc1ccc2[nH]c3c(NCCOC)ncnc3c2c1: > 42.9 µg/mL
3) Cc1ccc2nc(C)cc(C(=O)NC3CCCCCC3)c2c1: 3.6 µg/mL
4) Cc1cc2c(cc1C)C(c1ccccc1F)CC(=O)N2 (stereo unspecified): < 0.6 µg/mL
5) Cl.Clc1cccc(CNCCCSc2ncccn2)c1: > 49.5 µg/mL
6) COc1ccc(S(=O)(=O)N2c3ccc(F)cc3CCC2C)cc1 (stereo unspecified): 3.2 µg/mL

* * *

- applied.conditions: buffer; pH 7.4; 200.0 µM
quantity.name: solubility kinetic (µg/mL)

1) COc1ccc(C(=O)Nc2ccc3ncccc3c2)cc1: 12.1
2) Cc1ccc(/C=C/C(=O)OCC(=O)NCc2cccs2)o1: 21.8
3) O=C(CSCc1ccc(F)cc1)NCc1cccs1: 40.2
4) Cc1ccccc1NC(=O)CCl: 26.2
5) O=C(c1ccc(OC(F)(F)F)cc1)c1ncc[nH]1: 37.2
6) COc1ccc(C(CCNCc2ccc(OC(C)C)cc2)C(C)C)cc1 (stereo unspecified): 49.4
7) CN(Cc1ccccc1)c1ncc(C=O)s1: 27.8
8) O=C(CN1c2cccc3cccc(c23)S1(=O)=O)NC1CCCCC1: 5
9) CC(C)CCC1(C)NC(=O)N(CC(=O)Nc2ccc3c(c2)OCCO3)C1=O (stereo unspecified): 49.6
10) COc1ccccc1CNc1ncccn1.O=C(O)C(=O)O: 34.4
11) O=C(c1cc(-c2cccc(Cl)c2)on1)N1CCCC1: 7.5
12) COc1ccc(S(=O)(=O)N2CCN(Cc3cccs3)CC2)cc1OC: 55.7
13) Cc1ccc(NC(=O)NC(=O)COc2c(F)c(F)cc(F)c2F)c(C)c1: 20.5

* * *

- applied.conditions: buffer; pH 7.4; 200.0 µM
solubility kinetic listing for selected compounds.
quantity.name: solubility kinetic (µg/mL)

1. O=[N+]([O-])c1ccc(N2CCCC2)nc1N1CCCC1: 21.4
2. CC(C)(C)c1ccc(NC(=O)c2cc[n+]([O-])cc2)cc1: 36.1
3. COc1cc(SC)ccc1C(=O)Nc1ncc(C)s1: 1.4
4. C=CCc1ccc(OC(=O)NC2CCCCC2)c(OC)c1: 4.5
5. COc1ccccc1C(=O)NCCCNC(=O)c1cccnc1: 36.8
6. CSc1ncccc1C(=O)NC(C)CCc1ccccc1 (stereo not given): 11.9
7. CC(=O)Nc1ccc(-c2csc(-c3cccnc3)n2)cc1: 5.9
8. CC1CC(C)CN(C(=O)COC(=O)COc2ccc(C#N)cc2)C1 (stereo not given): 43.5
9. Cc1nc(N2CCCCC2)c(C#N)c(C)c1[N+](=O)[O-]: 3.8
10. Cc1ccc(NC(=O)c2cccs2)cc1[N+](=O)[O-]: 2.4
11. COc1ccc(-c2cnc(N)nc2-c2ccc(OC)cc2)cc1: 2.8
12. CCc1nccn1S(=O)(=O)c1cc(OC)ccc1OC: 32.9
13. CC(NCc1ccc2c(c1)OCO2)c1ccccc1.Cl (stereo not given): 41
14. CCCCC(CC)CNC(=O)C(=O)C1C(=O)Nc2ccccc21 (stereo not given): 26.1
